As shown below, each of these compounds has a reported GI50 value.
system: HS 578T; experiment: NCI60 five-dose screen, Breast Cancer; assay type: cell-based; conditions: Homo sapiens; HS 578T, Breast Cancer; five-dose screen; read-out: GI50

# COMPOUND, TEST SYSTEM, UNITS OF MEASURE, GI50
measured = [
    ("CC[C@]12C=CCN3CC[C@@]4(c5ccc(OC)cc5N(C)[C@H]4[C@@](O)(C(=O)OC)[C@@H]1OC(=O)CCCN1CCN(Cc4ccc(F)cc4)CC1)[C@@H]32", "HS 578T", "µM", 4.07),
    ("CC[C@]12C=CCN3CC[C@@]4(c5ccc(OC)cc5N(C)[C@H]4[C@@](O)(C(=O)OC)[C@@H]1OC(=O)CCC(=O)N1CCN(Cc4ccc(C(F)(F)F)cc4)CC1)[C@@H]32", "HS 578T", "µM", 10.2),
    ("CCC12C=CCN3CCC4(c5cc(NC(=O)CN6CCN(c7ccc(C(F)(F)F)cc7)CC6)c(OC)cc5N(C)C4C(O)(C(=O)OC)C1OC(C)=O)C32 (centres unmarked)", "HS 578T", "µM", 14.8),
    ("CC[C@]12C=CCN3CC[C@@]4(c5ccc(OC)cc5N(C)[C@H]4[C@@](O)(C(=O)OC)[C@@H]1OC(=O)CCC(=O)N1CCN(c4ccc(C(F)(F)F)cc4)CC1)[C@@H]32", "HS 578T", "µM", 4.79),
    ("CCC12C=CCN3CCC4(c5cc(NC(=O)CN6CCN(C(c7ccc(F)cc7)c7ccc(F)cc7)CC6)c(OC)cc5N(C)C4C(O)(C(=O)OC)C1OC(C)=O)C32 (centres unmarked)", "HS 578T", "µM", 5.89),
]

====

tested on: LOX IMVI; assay: NCI60 one-dose screen (10 μM), Melanoma; assay type: cell-based, human; settings: Homo sapiens; 10 μM; LOX IMVI, Melanoma; read-out: Growth percent rate

# COMPOUND, UNITS OF MEASURE, activity at 10 µM
rows = [
    ("CC[C@]12C=CCN3CC[C@@]4(c5ccc(OC)cc5N(C)[C@H]4[C@@](O)(C(=O)OC)[C@@H]1OC(=O)CCC(=O)N1CCN(c4ccc(C(F)(F)F)cc4)CC1)[C@@H]32 [Compound 28]", "%", -75.8),
    ("CC[C@]12C=CCN3CC[C@@]4(c5ccc(OC)cc5N(C)[C@H]4[C@@](O)(C(=O)OC)[C@@H]1OC(=O)CCCN1CCN(Cc4ccc(F)cc4)CC1)[C@@H]32 [Compound 24]", "%", 5.04),
    ("CC[C@]12C=CCN3CC[C@@]4(c5ccc(OC)cc5N(C)[C@H]4[C@@](O)(C(=O)OC)[C@@H]1OC(=O)CCC(=O)N1CCN(C)CC1)[C@@H]32 [Compound 27]", "%", 93),
]

====

test system: A498; experiment: NCI60 one-dose screen (10 μM), Renal Cancer; type: cell-based; conditions: Homo sapiens, A498, read-out: Growth percent rate
TEST READOUT: activity at 10 µM (%)

# COMPOUND, TEST READOUT, UNITS OF MEASURE, MEAS VALUE
measured = [
    ("CCC12C=CCN3CC[C@@]4(c5ccc(OC)cc5N(C)[C@H]4[C@@](O)(C(=O)OC)[C@@H]1OC(C)=O)[C@@H]32 (stereo partly drawn) [Compound 1, vindoline]", "activity at 10 µM", "%", 137),
    ("CC[C@]12C=CCN3CC[C@@]4(c5ccc(OC)cc5N(C)[C@H]4[C@@](O)(C(=O)OC)[C@@H]1OC(=O)CCCN1CCN(C(c4ccc(F)cc4)c4ccc(F)cc4)CC1)[C@@H]32 [Compound 25]", "activity at 10 µM", "%", -97.2),
    ("CCC12C=CCN3CCC4(c5ccc(OC)cc5N(C)C4C(O)(C(=O)OC)C1O)C32 (stereo not drawn) [Compound 13, 17-desacetylvindoline]", "activity at 10 µM", "%", 104),
    ("CCC12C=CCN3CCC4(c5cc(NC(=O)CN6CCN(Cc7ccc(C(F)(F)F)cc7)CC6)c(OC)cc5N(C)C4C(O)(C(=O)OC)C1OC(C)=O)C32 (stereo not drawn) [Compound 18]", "activity at 10 µM", "%", 78.7),
    ("CCC12C=CCN3CCC4(c5cc(NC(=O)CN6CCN(Cc7ccc(F)cc7)CC6)c(OC)cc5N(C)C4C(O)(C(=O)OC)C1OC(C)=O)C32 (stereo not drawn) [Compound 19]", "activity at 10 µM", "%", 132),
    ("CC[C@]12C=CCN3CC[C@@]4(c5ccc(OC)cc5N(C)[C@H]4[C@@](O)(C(=O)OC)[C@@H]1OC(=O)CCC(=O)N1CCN(C(=O)c4ccco4)CC1)[C@@H]32 [Compound 32]", "activity at 10 µM", "%", 117),
]
